# Test system: 777334-354-R2-J4-PDC tumor spheroids with HUVEC/MSC, viability
# assay.protocol: Anticancer human tumor 777334-354-R2-J4-PDC patient-derived pancreatic adenocarcinoma cell line growth inhibition [GQUAD]
# conditions.used: second compound 1 µM; first compound 0.1 µM; stronger effect = lower value
The following compounds are listed with their measured viability, T/C values.
Supply the numeric figure in %, leaving out any unit text.

>  <compound>
O=C(c1cc(Cc2n[nH]c(=O)c3ccccc23)ccc1F)N1CCN(C(=O)C2CC2)CC1 + Cc1[nH]c2ccc(F)cc2c1-c1nc2c3cccnc3c3ncccc3c2[nH]1

>  <readout.value>
89.7

$$$$
>  <compound>
Nc1ccn(C2OC(CO)C(O)C2(F)F)c(=O)n1 (centres undefined) + Cc1[nH]c2ccc(F)cc2c1-c1nc2c3cccnc3c3ncccc3c2[nH]1

>  <readout.value>
68

$$$$

**Query** Quick one: viability, T/C for O=C(c1cc(Cc2n[nH]c(=O)c3ccccc23)ccc1F)N1CCN(C(=O)C2CC2)CC1 + CN(C)c1ccc(Nc2c3ccc(NC(=O)CCN4CCCC4)cc3nc3cc(NC(=O)CCN4CCCC4)ccc23)cc1 ?
**Result** 89.8

**Query** Quick one: COc1cccc2c1C(=O)c1c(O)c3c(c(O)c1C2=O)CC(O)(C(=O)CO)CC3OC1CC(N)C(O)C(C)O1 (centres undefined) + Cc1cnc(CNC(=O)c2c(=O)c3ccc(N4CCCN(C)CC4)nc3n3c2sc2ccccc23)cn1
**Result** 70.4

* * *

# System: 777334-354-R2-J4-PDC tumor spheroids with HUVEC/MSC, viability
# assay.protocol: Anticancer human tumor 777334-354-R2-J4-PDC cell line growth inhibition [GQUAD];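 note: spheroids exposed to compounds for 7 days before readout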
# conditions.used: second compound 0.316 µM; first compound 1 µM; stronger effect = lower value
experimental.readout: viability, T/C

>  <compound>
Nc1ccn(C2OC(CO)C(O)C2(F)F)c(=O)n1 (stereo not drawn) + Cc1[nH]c2ccc(F)cc2c1-c1nc2c3cccnc3c3ncccc3c2[nH]1

>  <viability, T/C>
49.7%

$$$$
>  <compound>
CC1COCCN1c1cc(C2(S(C)(=N)=O)CC2)nc(-c2ccnc3[nH]ccc23)n1 (stereo not drawn) + Cc1cnc(CNC(=O)c2c(=O)c3ccc(N4CCCN(C)CC4)nc3n3c2sc2ccccc23)cn1

>  <viability, T/C>
82%

$$$$

**Query** Quick one: viability, T/C for C=CCn1c(=O)c2cnc(Nc3ccc(N4CCN(C)CC4)cc3)nc2n1-c1cccc(C(C)(C)O)n1 + CN(C)c1ccc(Nc2c3ccc(NC(=O)CCN4CCCC4)cc3nc3cc(NC(=O)CCN4CCCC4)ccc23)cc1 ?
**Result** 45.9%

* * *

The following compounds are listed with their measured viability, T/C values.
# Tested on: 777334-354-R2-J4-PDC tumor spheroids with HUVEC/MSC, viability
# assay.protocol: Anticancer human tumor 777334-354-R2-J4-PDC cell line growth inhibition [GQUAD];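 note: spheroids exposed to compounds for 7 days before readout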
# conditions.used: second compound 1 µM; first compound 0.0316 µM; stronger effect = lower value
Supply the numeric figure in %, leaving out any unit text.

Solved cases below.
>  <compound>
O=C(c1cc(Cc2n[nH]c(=O)c3ccccc23)ccc1F)N1CCN(C(=O)C2CC2)CC1 + Cc1cnc(CNC(=O)c2c(=O)c3ccc(N4CCCN(C)CC4)nc3n3c2sc2ccccc23)cn1

>  <unit>
%

>  <viability, T/C>
73.8

$$$$
>  <compound>
Cc1cccc(N(C)C(=O)C2C(O)CCN2c2nc(C)cc(C(F)(F)F)c2C#N)c1 (stereo not drawn) + Cc1cnc(CNC(=O)c2c(=O)c3ccc(N4CCCN(C)CC4)nc3n3c2sc2ccccc23)cn1

>  <unit>
%

>  <viability, T/C>
65.3

$$$$

For the next question, use this compound.
**Query** Quick one: viability, T/C for CCc1c2c(nc3ccc(O)cc13)-c1cc3c(c(=O)n1C2)COC(=O)[C@]3(O)CC + Cc1[nH]c2ccc(F)cc2c1-c1nc2c3cccnc3c3ncccc3c2[nH]1 ?
**Result** 23.9
